# subject.of.test: T1, native mouse MET on living cells (mouse, UniProt P16056 25-1379)
# T1 construct: whole, on cells; also called Mouse cells (MLP29); mouse epithelial cells expressing MET
# protocol.description: flow cytometry, MLP29 cells
Known EMAX of a selection of binders

71D6 chimeric llama-human IgG1 mAb (antibody, V domains shown, llama VH on human IgG1 CH1-CH2-CH3, llama VL on human lambda CL) VH: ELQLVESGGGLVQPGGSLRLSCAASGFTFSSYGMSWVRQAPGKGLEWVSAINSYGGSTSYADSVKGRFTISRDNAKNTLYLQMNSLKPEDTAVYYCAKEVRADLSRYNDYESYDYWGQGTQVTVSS VL: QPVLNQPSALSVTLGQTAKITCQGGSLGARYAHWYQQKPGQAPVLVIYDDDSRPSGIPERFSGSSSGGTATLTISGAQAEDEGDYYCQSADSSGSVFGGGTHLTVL ... 121 % relative to control

Could you now consider this next binder?
Qu. Give EMAX for 71C3 chimeric llama-human IgG1 mAb (antibody, V domains shown, llama VH on human IgG1 CH1-CH2-CH3, llama VL on human lambda CL) VH: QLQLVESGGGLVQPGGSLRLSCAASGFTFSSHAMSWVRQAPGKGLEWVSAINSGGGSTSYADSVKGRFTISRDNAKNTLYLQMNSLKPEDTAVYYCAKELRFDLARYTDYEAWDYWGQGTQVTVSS VL: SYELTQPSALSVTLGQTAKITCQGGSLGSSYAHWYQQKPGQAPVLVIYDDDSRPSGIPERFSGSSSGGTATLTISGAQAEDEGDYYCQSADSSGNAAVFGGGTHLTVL
Ans. 115 % relative to control
